As shown below, each of these binders has a reported EC50 value.
# Assay Target: human FGFR1c + KLB receptor complex on HEK293 iLite FGF21 reporter cells (human, UniProt P11362 22-822; Q86Z14 1-1044)
# Sequence (P11362 22-822, chain 1 of 2): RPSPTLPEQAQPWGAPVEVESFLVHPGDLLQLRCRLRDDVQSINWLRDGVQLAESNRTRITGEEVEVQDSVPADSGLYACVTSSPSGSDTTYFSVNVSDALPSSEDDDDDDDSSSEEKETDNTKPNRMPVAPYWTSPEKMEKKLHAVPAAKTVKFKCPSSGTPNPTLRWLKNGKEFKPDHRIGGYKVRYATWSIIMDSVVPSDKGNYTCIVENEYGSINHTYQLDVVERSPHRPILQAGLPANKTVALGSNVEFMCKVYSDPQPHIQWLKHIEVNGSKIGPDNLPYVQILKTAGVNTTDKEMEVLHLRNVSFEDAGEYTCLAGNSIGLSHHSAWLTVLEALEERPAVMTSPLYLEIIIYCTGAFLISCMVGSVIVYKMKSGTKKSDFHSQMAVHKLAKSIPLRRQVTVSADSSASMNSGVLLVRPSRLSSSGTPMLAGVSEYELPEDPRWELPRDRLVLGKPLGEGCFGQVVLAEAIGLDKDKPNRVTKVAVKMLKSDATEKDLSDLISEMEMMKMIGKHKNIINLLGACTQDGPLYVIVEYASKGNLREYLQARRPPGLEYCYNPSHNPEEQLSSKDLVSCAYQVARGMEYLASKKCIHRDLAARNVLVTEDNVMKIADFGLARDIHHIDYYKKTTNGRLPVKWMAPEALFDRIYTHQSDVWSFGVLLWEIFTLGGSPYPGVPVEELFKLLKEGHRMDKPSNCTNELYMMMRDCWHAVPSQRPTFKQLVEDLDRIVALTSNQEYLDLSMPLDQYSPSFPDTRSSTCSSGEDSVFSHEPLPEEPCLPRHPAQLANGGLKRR
# Sequence (Q86Z14 whole entry, chain 2 of 2): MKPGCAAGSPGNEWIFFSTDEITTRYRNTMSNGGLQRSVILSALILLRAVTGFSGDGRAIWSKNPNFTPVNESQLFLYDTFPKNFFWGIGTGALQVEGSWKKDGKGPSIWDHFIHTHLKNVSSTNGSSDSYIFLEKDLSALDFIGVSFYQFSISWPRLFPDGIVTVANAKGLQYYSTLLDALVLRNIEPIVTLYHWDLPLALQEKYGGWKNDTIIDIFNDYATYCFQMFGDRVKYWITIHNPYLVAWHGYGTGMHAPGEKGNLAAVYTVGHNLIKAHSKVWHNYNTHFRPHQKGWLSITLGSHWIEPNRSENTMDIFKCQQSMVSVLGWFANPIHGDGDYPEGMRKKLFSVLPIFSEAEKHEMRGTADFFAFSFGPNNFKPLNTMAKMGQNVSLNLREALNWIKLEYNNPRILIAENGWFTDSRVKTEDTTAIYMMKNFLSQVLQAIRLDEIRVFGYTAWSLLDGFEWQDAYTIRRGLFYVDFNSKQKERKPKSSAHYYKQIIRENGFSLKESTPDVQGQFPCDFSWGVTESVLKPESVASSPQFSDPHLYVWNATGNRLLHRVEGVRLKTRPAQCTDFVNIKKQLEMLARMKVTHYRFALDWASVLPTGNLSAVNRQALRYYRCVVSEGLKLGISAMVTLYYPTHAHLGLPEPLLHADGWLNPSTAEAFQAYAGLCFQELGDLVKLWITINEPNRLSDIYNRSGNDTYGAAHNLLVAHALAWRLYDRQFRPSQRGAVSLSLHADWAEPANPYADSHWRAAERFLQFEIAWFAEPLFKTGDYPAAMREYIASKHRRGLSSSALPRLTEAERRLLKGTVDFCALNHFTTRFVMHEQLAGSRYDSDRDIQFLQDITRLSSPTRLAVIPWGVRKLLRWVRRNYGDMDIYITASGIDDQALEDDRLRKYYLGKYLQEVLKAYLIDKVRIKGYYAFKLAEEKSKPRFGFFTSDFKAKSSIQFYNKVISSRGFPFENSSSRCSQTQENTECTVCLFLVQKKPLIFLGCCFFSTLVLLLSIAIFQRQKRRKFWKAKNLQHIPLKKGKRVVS
# Procedure Details: cell-based or functional assay
Note: unit nM is implicit; provide only the numeric part.

>  <Binder>
Ab0461 (antibody, IgG4, V domains shown) VH: QVTLKESGPVLVKPTETLTLTCTVSGFSLSNARVGVSWIRQPPGKALEWLAHIFSNDEKSYSTSLKSRLTISKDTSKSQVVLTMTNMDPVDTATYYCARSVVTGGYYYEGMDVWGQGTTVTVSS VL: SYVLTQPPSVSVAPGQTARITCGGSNIGSESVHWYQQKPGQAPVLVVYEESDRPSGIPERFSGSNSGNTATLTISRVEAGDEADYYCQVWEGESDHVVFGGGTKLTVLG

>  <EC50, nM>
0.02

$$$$

Continue with the next binder.
In: Could you tell me which EC50 is on file for Ab0301 (antibody, IgG4, V domains shown) VH: QVTLKESGPVLVKPTETLTLTCTVSGFSLNNARVGVSWIRQPPGKALEWLAHIFSNDEKSYSTSLKSRLTISKDTSKSQVVLTMTNMDPVDTATYYCARSVVTGGYYYEGMDVWGQGTTVTVSS VL: SYVLTQPPSVSVAPGQTARITCGGSNIGSESVHWYQQKPGQAPVLVVYYDSDRPSGIPERFSGSNSGNTATLTISRVEAGDEADYYCQVWTGNSDHVVFGGGTKLTVLG ?
Out: 21.5
